biological target: T1, 重组hSIRPα (human, UniProt P78324 31-370, limits assumed); assay: competition ELISA on coated hSIRPα (1 μg/ml) against biotinylated CD47-Fc (6 μg/ml)
T1 construct: also called SIRPα蛋白; SIRPα抗原
T1 sequence (P78324 31-370 limits assumed): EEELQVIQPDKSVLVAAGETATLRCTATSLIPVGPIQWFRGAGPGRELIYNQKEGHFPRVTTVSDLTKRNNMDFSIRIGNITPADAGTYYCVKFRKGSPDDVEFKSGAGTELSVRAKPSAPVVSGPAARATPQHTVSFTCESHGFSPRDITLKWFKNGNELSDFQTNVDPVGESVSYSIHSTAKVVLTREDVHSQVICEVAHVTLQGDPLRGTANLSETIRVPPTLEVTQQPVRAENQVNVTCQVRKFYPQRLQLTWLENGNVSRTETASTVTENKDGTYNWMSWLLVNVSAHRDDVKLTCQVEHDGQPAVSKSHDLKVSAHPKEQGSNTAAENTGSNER
experimental_endpoint: IC50 (µg/mL)

>>> reported_measurement("57B10 (antibody, V domains shown, also called 抗SIRPα抗体57B10) VH: EVKLQESGAELVRSGASVKMSCKASGYTFTSYNMHWIKQTPGQGLEWIGYIYPGNGATNYNQKFKGKATLTADTSSSTAYMQISSLTSEDSAVYFCARNYDYYFYTMDYWGQGTTVTVSS VL: DIVLTQSTKFMSTSVGDRVSITCKASQDVSTAVAWYQQKPGQSPKLLIYSASYRYTGVPDRFTGSGSRTDFTFTISSVQAEDLAVFYCQQHFSAPLTFGAGTKLELK")
0.0633
>>> reported_measurement("36D6 (antibody, V domains shown, also called 抗SIRPα抗体36D6) VH: EVQLQESGPELKKPGETVKISCKASGYTFTKYGMNWVKQAPGKGLKWLAWINTDTGEAKYSDDFKGRFAFSLETSASIVYLQINNLKNEDTATYFCARGESYSNYVRFVYWGQGTTVTVSS VL: DIVMTQSHKFMSTSVGDRVSITCKASQDVNTAVAWYQQKAGHSPKLLIYWTSTRHTGVPDRFTGSGSGTDYTLTISSVQAEDLTLYYCQQHYSTPWTFGGGTKLEIK")
0.248
>>> reported_measurement("36G4 (antibody, V domains shown, also called 抗SIRPα抗体36G4) VH: EVQLVESGGGLVQPGGSLKLSCAASGFTFSNYGMSWVRQTPDKRLELVATINSNGGDTSYPDSVRGRFTISRDNAKNTLYLQMSSLKSEDTAMYYCTRGGWSWFAYWGQGTLVTVSA VL: DIVLTQSPTSLAVSLGQRATISCRASESADSYGNSYMNWYQQKPGQPPKLLIYLASNLESGVPARFSGSGSRTDFTLTIDPVEADDAATYYCQQINEDPYTFGGGTKLEIK")
0.15
>>> reported_measurement("40F3 (antibody, V domains shown, also called 抗SIRPα抗体40F3) VH: QVQLQQPGAELGKPGASVKLSCKASGYTFSSYYIYWLKQRPGQGLEWIGGINPSNDDTHLTEKFKSKATLIADRSSSTAYIQLSSLTSEDSAVYYCTRSYYANSWFAYWGQGTLVTVSA VL: DIVLTQSPLSLPVSLGDQASISCRSSQTIVHSNGNTYLAWYLQKPGQSPKLLIYKVSNRFSGVPDRFSGSGSGTEFTLKISRVEAEDLGVYYCFQGSHVPYTFGGGTKLEIK")
0.0653
